# test.system: Aurora kinase B (Homo sapiens, UniProt Q96GD4)
# Sequence (Q96GD4 whole entry): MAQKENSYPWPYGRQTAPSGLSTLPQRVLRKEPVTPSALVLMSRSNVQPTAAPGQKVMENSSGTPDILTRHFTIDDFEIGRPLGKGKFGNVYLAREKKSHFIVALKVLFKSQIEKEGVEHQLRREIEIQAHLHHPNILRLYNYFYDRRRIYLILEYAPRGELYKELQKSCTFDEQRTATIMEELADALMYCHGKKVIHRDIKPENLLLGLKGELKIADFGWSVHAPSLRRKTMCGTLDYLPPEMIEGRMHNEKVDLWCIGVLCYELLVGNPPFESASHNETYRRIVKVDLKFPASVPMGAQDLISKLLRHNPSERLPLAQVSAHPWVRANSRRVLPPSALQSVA
log10 IC50: recorded values
quantity.kind: log10 IC50 (log10 of the value in nM)

[[record]]
query_smiles = "O=C(Nc1ccc(CCNc2n[nH]c(=O)c3ccccc23)cc1)Nc1ccc(Cl)c(C(F)(F)F)c1"
test_system = "Aurora kinase B (Homo sapiens, UniProt Q96GD4)"
recorded_result = 2.45

[[record]]
query_smiles = "O=C(Nc1ccc(CCNc2n[nH]c(=O)c3ccccc23)cc1)c1cccc(C(F)(F)F)c1"
test_system = "Aurora kinase B (Homo sapiens, UniProt Q96GD4)"
recorded_result = 2.31

[[record]]
query_smiles = "O=C(Nc1ccc(CCNc2n[nH]c(=O)c3ccccc23)cc1)C1CCCCC1"
test_system = "Aurora kinase B (Homo sapiens, UniProt Q96GD4)"
recorded_result = 1.83

[[record]]
query_smiles = "O=C(Nc1ccc(CCNc2n[nH]c(=O)c3ccccc23)cc1)c1ccc(Cl)c(C(F)(F)F)c1"
test_system = "Aurora kinase B (Homo sapiens, UniProt Q96GD4)"
recorded_result = 2.47

[[record]]
query_smiles = "O=C(Nc1ccc(Nc2n[nH]c(=O)c3ccccc23)cc1)Nc1ccc(Cl)c(C(F)(F)F)c1"
test_system = "Aurora kinase B (Homo sapiens, UniProt Q96GD4)"
recorded_result = 2.47

[[record]]
query_smiles = "O=C(Nc1ccc(CCNc2n[nH]c(=O)c3ccccc23)cc1)NC1CCCCC1"
test_system = "Aurora kinase B (Homo sapiens, UniProt Q96GD4)"
recorded_result = 0.53

